# protocol-summary: xn = mol fraction of the nth substance listed, in the solute-free solvent
# stated-conditions: 283.15 K; x2 = 0.1139
endpoint-label: solubility (g/100 g solution)

INSERT INTO results (compound, endpoint_label, numeric_result) VALUES
  ('CC(C)C(=O)Nc1ccc([N+](=O)[O-])c(C(F)(F)F)c1 + CC(C)O + O', 'solubility (g/100 g solution)', 0.182);

P. O=C1C=CC(=O)N1c1ccccc1Br + CC(C)O + O
Q. O=c1cc(CBr)c2ccccc2[nH]1 + CC(C)O + O
R. O=c1cc(CBr)c2ccccc2[nH]1 + CCCO + O
S. Nc1ncc(Br)nc1Br + CC(C)O + O
Sort the compounds on solubility (g/100 g solution); start with the lowest figure. Response format: the labels, sorted as the prompt asks.
Q, R, S, P

====

# protocol-summary: xn = mol fraction of the nth substance listed, in the solute-free solvent
# stated-conditions: 323.15 K; x2 = 0.4772
endpoint-label: solubility (g/100 g solution)

INSERT INTO results (compound, numeric_result) VALUES
  ('CC(C)C(=O)Nc1ccc([N+](=O)[O-])c(C(F)(F)F)c1 + CCO + O', 19.1);

1. Nc1ncc(Br)nc1Br + CCO + O
2. O=C1C=CC(=O)N1c1ccccc1Br + CCO + O
3. Nc1cc(-c2ccncc2)c[nH]c1=O + CCO + O
Sort the compounds on solubility (g/100 g solution); start with the lowest figure. Response format: the labels, sorted as the prompt asks.
3, 1, 2
(3: 0.0282, 1: 0.957, 2: 20.8)

====

# protocol-summary: xn = mol fraction of the nth substance listed, in the solute-free solvent
# stated-conditions: 278.15 K; x2 = 0.6101
endpoint-label: solubility (g/100 g solution)

Use the examples below as a reference point.
INSERT INTO measurements (compound, numeric_result) VALUES
  ('CC(C)C(=O)Nc1ccc([N+](=O)[O-])c(C(F)(F)F)c1 + CCO + O', 8.9),
  ('O=c1cc(CBr)c2ccccc2[nH]1 + CCO + O', 0.0917),
  ('O=C1C=CC(=O)N1c1ccccc1Br + CCO + O', 5.33);

a. Nc1ncc(Br)nc1Br + CCO + O
b. Nc1cc(-c2ccncc2)c[nH]c1=O + CCO + O
Compare a and b by numeric solubility (g/100 g solution) and name the larger one. Returns: label corresponding to the selected item.
a
(a: 0.321, b: 0.00938)

====

# protocol-summary: xn = mol fraction of the nth substance listed, in the solute-free solvent
# stated-conditions: 318.15 K; x2 = 0.4117
endpoint-label: solubility (g/100 g solution)

INSERT INTO measurements (compound, endpoint_label, numeric_result) VALUES
  ('O=c1cc(CBr)c2ccccc2[nH]1 + CCCO + O', 'solubility (g/100 g solution)', 0.229);

P. O=c1cc(CBr)c2ccccc2[nH]1 + CC(C)O + O
Q. O=C1C=CC(=O)N1c1ccccc1Br + CC(C)O + O
Of the pair P and Q , name the member with the lesser recorded solubility (g/100 g solution). Returns: label corresponding to the selected item.
P

====

# protocol-summary: xn = mol fraction of the nth substance listed, in the solute-free solvent
# stated-conditions: 318.15 K; x2 = 0.1139
endpoint-label: solubility (g/100 g solution)

INSERT INTO results (molecule, numeric_result) VALUES
  ('Nc1ncc(Br)nc1Br + CC(C)O + O', 0.202),
  ('O=c1cc(CBr)c2ccccc2[nH]1 + CC(C)O + O', 0.14);

I. O=C1C=CC(=O)N1c1ccccc1Br + CC(C)O + O
II. O=c1cc(CBr)c2ccccc2[nH]1 + CCCO + O
Compare I and II by numeric solubility (g/100 g solution) and name the larger one. Returns: label corresponding to the selected item.
I
(I: 6.97, II: 0.157)
